molecular target: Amine oxidase [flavin-containing] B (Homo sapiens); assay: biochemical; assay type: cell-based, BTI-TN-5B1-4
Sequence (P27338 whole entry): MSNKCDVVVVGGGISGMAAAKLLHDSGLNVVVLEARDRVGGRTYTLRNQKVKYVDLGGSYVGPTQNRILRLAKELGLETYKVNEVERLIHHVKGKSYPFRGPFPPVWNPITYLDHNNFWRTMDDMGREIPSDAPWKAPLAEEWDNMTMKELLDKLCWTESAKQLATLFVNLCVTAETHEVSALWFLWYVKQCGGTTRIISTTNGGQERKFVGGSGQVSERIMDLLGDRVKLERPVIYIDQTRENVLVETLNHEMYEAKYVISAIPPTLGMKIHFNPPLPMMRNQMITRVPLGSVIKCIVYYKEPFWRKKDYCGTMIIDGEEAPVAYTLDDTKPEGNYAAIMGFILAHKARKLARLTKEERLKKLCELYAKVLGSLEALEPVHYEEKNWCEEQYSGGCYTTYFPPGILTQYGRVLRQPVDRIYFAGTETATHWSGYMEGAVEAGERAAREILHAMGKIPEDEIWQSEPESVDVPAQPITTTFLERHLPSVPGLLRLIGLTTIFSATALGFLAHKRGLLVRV
Description: Inhibition of human MAO-B expressed in baculovirus infected BTI-TN-5B1-4 insect cells using p-tyramine as substrate assessed as hydrogen peroxide production by fluorimetric method
pIC50: −log10 of the molar value.
Each entry below lists one item and its recorded pIC50 value.
assay endpoint: pIC50

[[record]]
molecule = "C(=N\\Nc1nc(-c2ccc3ccccc3c2)cs1)/c1c[nH]c2ccccc12"
target_entity = "Amine oxidase [flavin-containing] B (Homo sapiens)"
assay_endpoint = "pIC50"
reported = 5.22

[[record]]
molecule = "Cc1sc(NN=C2CCCCC2)nc1-c1ccccc1"
target_entity = "Amine oxidase [flavin-containing] B (Homo sapiens)"
assay_endpoint = "pIC50"
reported = 5.75

[[record]]
molecule = "C/C(=N\\Nc1nc(-c2ccccc2)c(C)s1)c1nccs1"
target_entity = "Amine oxidase [flavin-containing] B (Homo sapiens)"
assay_endpoint = "pIC50"
reported = 6.55

[[record]]
molecule = "C/C(=N\\Nc1nc(-c2ccccc2)c(C)s1)c1ccccc1"
target_entity = "Amine oxidase [flavin-containing] B (Homo sapiens)"
assay_endpoint = "pIC50"
reported = 5.65

[[record]]
molecule = "Cc1sc(N/N=C/c2ccco2)nc1-c1ccccc1"
target_entity = "Amine oxidase [flavin-containing] B (Homo sapiens)"
assay_endpoint = "pIC50"
reported = 5.51

[[record]]
molecule = "CCCCC/C(C)=N\\Nc1nc(-c2ccccc2)c(C)s1"
target_entity = "Amine oxidase [flavin-containing] B (Homo sapiens)"
assay_endpoint = "pIC50"
reported = 5.22

[[record]]
molecule = "CCC/C(C)=N\\Nc1nc(-c2ccccc2)c(C)s1"
target_entity = "Amine oxidase [flavin-containing] B (Homo sapiens)"
assay_endpoint = "pIC50"
reported = 5.64

[[record]]
molecule = "C/C(CC(C)C)=N/Nc1nc(-c2ccccc2)c(C)s1"
target_entity = "Amine oxidase [flavin-containing] B (Homo sapiens)"
assay_endpoint = "pIC50"
reported = 5.56

[[record]]
molecule = "CC1CCC/C1=N\\Nc1nc(-c2ccc3ccccc3c2)cs1 (stereo not given)"
target_entity = "Amine oxidase [flavin-containing] B (Homo sapiens)"
assay_endpoint = "pIC50"
reported = 5.54

[[record]]
molecule = "C(=N\\Nc1nc(-c2ccc3ccccc3c2)cs1)/c1cccs1"
target_entity = "Amine oxidase [flavin-containing] B (Homo sapiens)"
assay_endpoint = "pIC50"
reported = 5.33

[[record]]
molecule = "Cc1sc(NN=C2CCCCCCC2)nc1-c1ccccc1"
target_entity = "Amine oxidase [flavin-containing] B (Homo sapiens)"
assay_endpoint = "pIC50"
reported = 5.64

[[record]]
molecule = "Cc1sc(N/N=C2\\CCCCC2C)nc1-c1ccccc1 (stereo not given)"
target_entity = "Amine oxidase [flavin-containing] B (Homo sapiens)"
assay_endpoint = "pIC50"
reported = 5.95

[[record]]
molecule = "CC(C)=NNc1nc(-c2ccccc2)c(C)s1"
target_entity = "Amine oxidase [flavin-containing] B (Homo sapiens)"
assay_endpoint = "pIC50"
reported = 5.28

[[record]]
molecule = "C(=N\\Nc1nc(-c2ccc3ccccc3c2)cs1)/c1ccncc1"
target_entity = "Amine oxidase [flavin-containing] B (Homo sapiens)"
assay_endpoint = "pIC50"
reported = 5.13

[[record]]
molecule = "C/C(=N\\Nc1nc(-c2ccc3ccccc3c2)cs1)c1cccs1"
target_entity = "Amine oxidase [flavin-containing] B (Homo sapiens)"
assay_endpoint = "pIC50"
reported = 4.84

